Values from PubChem BioAssay

Some compounds, each annotated with its measured fluorescence slope.
target: Voltage-gated potassium channel subunit beta-2 (Rattus norvegicus); test: inhibitors of rat Kvbeta2 reductase activity – biochemical, NADPH fluorescence, primary screen (AID 622); settings: recombinant KvBeta, 4-cyanobenzaldehyde reduction, at 10 µM, active compounds read high;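 note: slope of raw intensity against log time taken from 70 to 1610 s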
Keep the answer to the number alone.

Example entries begin here.
{"compound": "COc1ccc(-c2noc(-c3ccccc3C(=O)Nc3cccnc3)n2)cc1OC", "target desc": "Voltage-gated potassium channel subunit beta-2 (Rattus norvegicus)", "fluorescence slope": -0.458}
{"compound": "CC(C)c1ccc(NC(=O)CCNS(=O)(=O)c2cccc3nonc23)cc1", "target desc": "Voltage-gated potassium channel subunit beta-2 (Rattus norvegicus)", "fluorescence slope": -0.544}
{"compound": "CC1CN(c2nc3ccccc3nc2C(C#N)C(=O)NCc2ccc3c(c2)OCO3)CC(C)O1 (configuration not stated)", "target desc": "Voltage-gated potassium channel subunit beta-2 (Rattus norvegicus)", "fluorescence slope": -0.347}
{"compound": "COC(=O)c1ccc(NC(=O)C(C)N2C(=O)c3ccccc3C2=O)cc1 (configuration not stated)", "target desc": "Voltage-gated potassium channel subunit beta-2 (Rattus norvegicus)", "fluorescence slope": -0.614}
{"compound": "O=C(CSc1ncnc2c1oc1ccccc12)Nc1ccccc1F", "target desc": "Voltage-gated potassium channel subunit beta-2 (Rattus norvegicus)", "fluorescence slope": -0.549}

Problem: I have this compound here, COc1ccccc1OCC(=O)Nc1cccc(-c2nc3ccccc3o2)c1 , and I need its recorded fluorescence slope.
Result: -0.374

Problem: For CCOC(=O)C(NC(=O)c1ccccc1)(Nc1cc(C)on1)C(F)(F)F (configuration not stated) then?
Result: -0.494

Problem: Next up: Cc1nc2c(-c3ccc(F)cc3)c(C)nn2c(C)c1CCC(=O)NC(C)CCc1ccco1 (configuration not stated)
Result: -0.568

Problem: Then CCCCCSc1nc2c(cnn2-c2ccccc2)c(=O)[nH]1 ?
Result: -0.399

Problem: One more compound: Cc1cc(C(=O)Nc2nc3c(s2)CCCC3)cs1
Result: -0.532

Problem: Cc1c(NC(=O)Cn2nc(C(=O)O)c3ccccc3c2=O)c(=O)n(-c2ccccc2)n1C , same question.
Result: -0.541

----------
Measured inhibition, listed per entry for reference.
experiment: endothelial E-selectin expression blockers – imaging, HUVEC, immunofluorescence, MLSMR starter and 10KST1 sets, primary screen (AID 487); conditions: HUVEC TNFalpha-induced E-selectin immunofluorescence imaging, at 2 µM; active compounds read high;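 note: signal is fraction of cell area covered by stained E-selectin grains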
Respond with the bare value in %.

{"molecule": "CC(=O)Nc1c(-c2ccc(F)cc2)nc2ccccn12", "test value": -6.5}
{"molecule": "Cc1ccccc1OCCCN1C(=O)C(=O)c2cccc(C)c21", "test value": -81.4}
{"molecule": "O=C(CN1CCN(Cc2ccccc2F)C1=O)NCc1cccnc1", "test value": -69.2}

Problem: I am curious: what inhibition value has been reported for O=C(O)[C@@H]1CCCN1c1ncnc2sc3c(c12)CCC3 ?
Result: -149

Problem: Another molecule to look at: COc1ccc(CC(NC(C)=O)C(=O)N2CCN(C(=O)N(C(C)C)C(C)C)CC2)cc1 (stereo unspecified)
Result: -29.4

Problem: Also COc1ccc(NC(=O)C2CCCN2S(=O)(=O)c2cccc3cccnc23)c(OC)c1 (stereo unspecified) ?
Result: -59.6

Problem: And what about the molecule CCOC(=O)Cn1c(=N)n(CCOc2cccc(C)c2)c2ccccc21 ?
Result: -112

Problem: Input C/C(=N\O)C(=O)C(CN1CCCCC1)CN1CCCCC1
Result: -144

Problem: Follow-up entry: COc1cccc(-c2cc(C(F)(F)F)nc(NCc3ccco3)n2)c1
Result: -25.2

Problem: Please do the same for O=C(CN(Cc1ccc2c(c1)OCO2)C(=O)CNS(=O)(=O)c1ccccc1)NCc1ccco1 as well.
Result: -3.6

Problem: Also check FC(F)(F)c1cccc(N2CCN(c3nnnn3-c3ccccc3)CC2)c1
Result: -98.2

----------
assay: endothelial E-selectin expression blockers – imaging, HUVEC, immunofluorescence, MLSMR starter and 10KST1 sets, primary screen (AID 487); settings: HUVEC TNFalpha-induced E-selectin immunofluorescence imaging, at 2 µM; active compounds read high;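 note: signal is fraction of cell area covered by stained E-selectin grains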
# maps each entry to its inhibition
Use % as the unit, but write only the number.

Reference set, count: 3
{"compound": "Cc1cc(C)c(C)c(OCC(=O)NCC2CCCO2)c1 (stereo not drawn)", "inhibition / %": -65.1}
{"compound": "C/C=C(\\C)c1nnc(NC(=O)OCC)s1", "inhibition / %": -52}
{"compound": "CCOc1ccc(N(CC)C(=O)COc2cc(=O)n(C)c3ccccc23)cc1", "inhibition / %": -47.3}

Problem: Given the compound CCOC(=O)CSc1nnc(-c2ccccc2OC)o1 , what is its reported inhibition?
Result: -74.1

Problem: Entry to check: Cc1ccc(-c2cc(C(F)F)nc(NCC3CCCO3)n2)cc1 (stereo not drawn)
Result: -135

Problem: Would you mind doing Cc1csc(SCCn2c(N3CCCC3)nc3c2c(=O)[nH]c(=O)n3C)n1 as well?
Result: -26.1

Problem: Try CCOC(=O)Cc1nnc(NC(=O)c2ccccc2OCC)s1 next.
Result: -43.9

Problem: Now the compound CC1CCc2nn(CC(=O)N3CCN(C(=O)c4ccco4)CC3)cc2C1 (stereo not drawn)
Result: -41

Problem: Also need COC(=O)c1ccc(CSc2nc3c(cnn3-c3ccc(F)cc3)c(=O)[nH]2)o1 , thanks.
Result: -44.8

Problem: // query: Cc1cccc(N2CCN(C(=O)C3CCCN(S(=O)(=O)c4c(C)noc4C)C3)CC2)c1C (stereo not drawn)
Result: -85.1

Problem: Moving on to O=C(NCc1cccs1)C1CCN(S(=O)(=O)c2cccs2)CC1
Result: -13.4

Problem: Now the compound Cc1nn(-c2ccccc2)c(Cl)c1C(=O)NCC(=O)O
Result: -22.6

Problem: CCOc1ccc(C2CC(c3cccc(C)c3)n3ncnc3N2)cc1 (stereo not drawn) ?
Result: -13.6

Problem: Entry to check: Cc1ccc2[nH]c(=O)c(-c3noc(-c4ccncc4)n3)cc2c1
Result: -51

Problem: Next up: CC(C)OC(=O)c1ccc(NC(=O)C2C3CC4OC(=O)C2C4C3)cc1 (stereo not drawn)
Result: -115

----------
test: inhibitors of TNFa-induced NFkB p65 translocation, primary screen, imaging, HUVEC, MLSMR starter and 10KST1 sets (AID 438); conditions: HUVEC TNFa-induced p65 nuclear translocation; at 2 µM, active compounds read high, 0% TNFa-plus-vehicle, 100% no-TNFa wells;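 note: compound added about 3h40 before a 20 min TNFalpha stimulation; signal is the nuclear over cytoplasmic p65 intensity ratio per well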
inhibition: recorded values
Respond with the bare value in %.

Worked examples follow.
{"molecule": "Cc1cc(NS(=O)(=O)c2ccc(Nc3nc(-c4sc(N)nc4C)cs3)cc2)no1", "uom": "%", "inhibition": 5.5}
{"molecule": "COc1ccc(NC(=O)c2cc(C(C)C)on2)c(OC)c1", "uom": "%", "inhibition": -11.1}
{"molecule": "Cc1ccc(CN2C(=O)CCC2C(=O)NC2CCCC2)cc1 (configuration not stated)", "uom": "%", "inhibition": 1.3}

Problem: State the recorded inhibition for this entry: COc1cc2c(cc1OC)-c1nnc(C)n1C1(CCCC1)C2
Result: 2.9

Problem: What do you have for Cn1c2c(c(=O)n(C)c1=O)C(CC(=O)Nc1ccccc1)C(=O)N2 (configuration not stated) ?
Result: -3.5

Problem: # repeat for O=C(CN(Cc1ccc2c(c1)OCO2)C(=O)CNS(=O)(=O)c1ccccc1)NCc1ccco1
Result: 9

Problem: Also, Cc1ccc(-c2nnc(SCC(=O)N3c4ccccc4NC(=O)C3(C)C)n2N)cc1 please.
Result: -0.7

Problem: Likewise for COc1ccc2cc(C(=O)NCc3ccco3)c(=Nc3ccc(C(=O)O)cc3)oc2c1 ?
Result: -12.8

Problem: Please give the result for CCOC(=O)c1c(NC(=O)c2nn(CC)cc2Br)c(C#N)cn1-c1ccccc1 too.
Result: 0.6

Problem: O=C(NCc1cccs1)C1CCN(S(=O)(=O)c2cccs2)CC1 , same question.
Result: 4.5

Problem: Same question for CCOCCCn1c(=S)[nH]c2cc3c(cc2c1=O)OCO3 please.
Result: 3

Problem: Now consider Cc1ccc2nc(-c3ccccn3)cc(C(=O)N3CCN(c4ncccn4)CC3)c2c1 .
Result: -5.9

Problem: Further, for CCOc1ccc(N(CC(=O)Nc2ccc(C)c(C)c2)S(=O)(=O)c2c(C)noc2C)cc1 ?
Result: 0

Problem: How about O=C(NCC1CCCO1)C1CCN(S(=O)(=O)c2cccc3cccnc23)CC1 (configuration not stated) ?
Result: -5

Problem: Now the same for Cc1cnc(C(=O)Nc2nnc(C(C)C)s2)cn1
Result: -8.8

Problem: Next record, please: COc1ccc(C)cc1NC(=O)CSc1nnnn1Cc1ccccc1
Result: -1.6

Problem: Now consider O=C1C2C3C=CC(C3)C2C(=O)N1c1cccc(N2C(=O)C3C4C=CC(C4)C3C2=O)n1 (configuration not stated) .
Result: 8.4

Problem: Query CCOCCCNC(=O)Cn1cc2c(n1)CCCCC2 next
Result: -2.3

Problem: Another: Cc1cc(NC(=O)COc2cccc(C)c2C)no1
Result: 6.5

Problem: // same read-out, input: Clc1ccc(Nc2ncnc3c2cnn3-c2ccccc2)cc1
Result: 0

Problem: Try this molecule too: Cc1nn(C)c(C)c1NC(=O)CCSc1nc(-c2ccco2)cc(C(F)(F)F)n1
Result: -2.2

Problem: Please give the result for Cc1cccc(NC(=O)c2cc(NC(=O)c3ccco3)ccc2N2CCCCC2)c1 too.
Result: -3.9
